- test-system: UniProt Q9BX84
- Sequence (Q9BX84 whole entry): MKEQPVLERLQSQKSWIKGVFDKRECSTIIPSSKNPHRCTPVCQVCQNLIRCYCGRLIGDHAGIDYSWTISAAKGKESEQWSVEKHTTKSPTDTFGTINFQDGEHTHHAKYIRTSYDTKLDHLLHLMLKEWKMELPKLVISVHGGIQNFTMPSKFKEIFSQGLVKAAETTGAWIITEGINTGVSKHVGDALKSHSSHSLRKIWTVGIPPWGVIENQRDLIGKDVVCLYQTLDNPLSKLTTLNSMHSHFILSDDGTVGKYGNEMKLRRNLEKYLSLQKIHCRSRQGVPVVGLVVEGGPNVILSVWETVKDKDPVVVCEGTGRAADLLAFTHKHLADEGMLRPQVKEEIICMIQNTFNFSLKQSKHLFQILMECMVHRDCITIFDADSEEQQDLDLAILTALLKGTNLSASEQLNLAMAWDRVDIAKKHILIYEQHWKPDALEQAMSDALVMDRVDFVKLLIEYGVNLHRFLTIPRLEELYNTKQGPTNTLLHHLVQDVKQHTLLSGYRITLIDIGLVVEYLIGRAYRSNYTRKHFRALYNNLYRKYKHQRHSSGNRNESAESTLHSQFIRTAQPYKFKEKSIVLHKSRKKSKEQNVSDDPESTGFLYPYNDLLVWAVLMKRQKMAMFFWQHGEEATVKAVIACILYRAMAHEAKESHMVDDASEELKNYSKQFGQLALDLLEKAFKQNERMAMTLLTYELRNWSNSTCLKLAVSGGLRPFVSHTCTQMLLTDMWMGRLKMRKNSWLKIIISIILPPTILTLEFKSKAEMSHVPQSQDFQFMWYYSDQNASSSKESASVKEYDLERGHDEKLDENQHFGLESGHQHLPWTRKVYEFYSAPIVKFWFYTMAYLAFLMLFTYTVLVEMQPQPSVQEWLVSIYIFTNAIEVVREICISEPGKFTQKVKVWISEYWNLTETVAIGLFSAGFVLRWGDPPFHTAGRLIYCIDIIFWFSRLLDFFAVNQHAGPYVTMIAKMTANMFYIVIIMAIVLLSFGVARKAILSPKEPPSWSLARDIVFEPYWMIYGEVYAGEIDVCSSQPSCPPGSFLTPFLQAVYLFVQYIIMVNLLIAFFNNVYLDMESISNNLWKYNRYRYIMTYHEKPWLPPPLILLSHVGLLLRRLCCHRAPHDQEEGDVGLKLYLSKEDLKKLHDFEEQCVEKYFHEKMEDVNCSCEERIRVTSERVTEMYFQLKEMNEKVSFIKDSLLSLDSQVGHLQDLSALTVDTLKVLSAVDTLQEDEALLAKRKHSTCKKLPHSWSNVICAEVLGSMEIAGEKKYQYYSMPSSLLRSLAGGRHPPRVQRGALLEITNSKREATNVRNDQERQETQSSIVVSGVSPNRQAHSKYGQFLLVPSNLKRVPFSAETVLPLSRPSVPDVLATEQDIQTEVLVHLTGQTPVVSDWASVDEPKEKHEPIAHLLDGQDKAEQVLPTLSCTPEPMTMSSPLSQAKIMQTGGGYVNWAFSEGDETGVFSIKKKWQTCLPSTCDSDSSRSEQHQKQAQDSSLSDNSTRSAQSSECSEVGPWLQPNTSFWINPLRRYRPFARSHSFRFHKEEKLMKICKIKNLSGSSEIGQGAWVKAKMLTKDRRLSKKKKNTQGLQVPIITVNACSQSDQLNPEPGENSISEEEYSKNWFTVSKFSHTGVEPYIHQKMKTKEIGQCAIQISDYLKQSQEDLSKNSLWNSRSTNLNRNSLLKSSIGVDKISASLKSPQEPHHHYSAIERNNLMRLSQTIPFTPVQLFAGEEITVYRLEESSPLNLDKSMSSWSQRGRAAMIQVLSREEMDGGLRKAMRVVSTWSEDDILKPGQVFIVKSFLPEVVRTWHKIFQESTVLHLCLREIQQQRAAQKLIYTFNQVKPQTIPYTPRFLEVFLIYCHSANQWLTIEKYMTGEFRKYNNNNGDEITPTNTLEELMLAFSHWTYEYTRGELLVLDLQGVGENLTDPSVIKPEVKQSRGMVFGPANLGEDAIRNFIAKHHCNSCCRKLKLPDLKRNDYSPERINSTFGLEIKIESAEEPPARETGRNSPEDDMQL
assay-endpoint: IC50

// fetch UniProt Q9BX84 IC50 for "Cc1cn(CCN2CCN(c3ccccc3-c3cc(C#N)cc(C(=O)NCCCN4CCCC4)c3)CC2)c2ccccc12"
> 20 µM

* * *

- test-system: hCIT (Homo sapiens)
- Sequence (O14578 whole entry): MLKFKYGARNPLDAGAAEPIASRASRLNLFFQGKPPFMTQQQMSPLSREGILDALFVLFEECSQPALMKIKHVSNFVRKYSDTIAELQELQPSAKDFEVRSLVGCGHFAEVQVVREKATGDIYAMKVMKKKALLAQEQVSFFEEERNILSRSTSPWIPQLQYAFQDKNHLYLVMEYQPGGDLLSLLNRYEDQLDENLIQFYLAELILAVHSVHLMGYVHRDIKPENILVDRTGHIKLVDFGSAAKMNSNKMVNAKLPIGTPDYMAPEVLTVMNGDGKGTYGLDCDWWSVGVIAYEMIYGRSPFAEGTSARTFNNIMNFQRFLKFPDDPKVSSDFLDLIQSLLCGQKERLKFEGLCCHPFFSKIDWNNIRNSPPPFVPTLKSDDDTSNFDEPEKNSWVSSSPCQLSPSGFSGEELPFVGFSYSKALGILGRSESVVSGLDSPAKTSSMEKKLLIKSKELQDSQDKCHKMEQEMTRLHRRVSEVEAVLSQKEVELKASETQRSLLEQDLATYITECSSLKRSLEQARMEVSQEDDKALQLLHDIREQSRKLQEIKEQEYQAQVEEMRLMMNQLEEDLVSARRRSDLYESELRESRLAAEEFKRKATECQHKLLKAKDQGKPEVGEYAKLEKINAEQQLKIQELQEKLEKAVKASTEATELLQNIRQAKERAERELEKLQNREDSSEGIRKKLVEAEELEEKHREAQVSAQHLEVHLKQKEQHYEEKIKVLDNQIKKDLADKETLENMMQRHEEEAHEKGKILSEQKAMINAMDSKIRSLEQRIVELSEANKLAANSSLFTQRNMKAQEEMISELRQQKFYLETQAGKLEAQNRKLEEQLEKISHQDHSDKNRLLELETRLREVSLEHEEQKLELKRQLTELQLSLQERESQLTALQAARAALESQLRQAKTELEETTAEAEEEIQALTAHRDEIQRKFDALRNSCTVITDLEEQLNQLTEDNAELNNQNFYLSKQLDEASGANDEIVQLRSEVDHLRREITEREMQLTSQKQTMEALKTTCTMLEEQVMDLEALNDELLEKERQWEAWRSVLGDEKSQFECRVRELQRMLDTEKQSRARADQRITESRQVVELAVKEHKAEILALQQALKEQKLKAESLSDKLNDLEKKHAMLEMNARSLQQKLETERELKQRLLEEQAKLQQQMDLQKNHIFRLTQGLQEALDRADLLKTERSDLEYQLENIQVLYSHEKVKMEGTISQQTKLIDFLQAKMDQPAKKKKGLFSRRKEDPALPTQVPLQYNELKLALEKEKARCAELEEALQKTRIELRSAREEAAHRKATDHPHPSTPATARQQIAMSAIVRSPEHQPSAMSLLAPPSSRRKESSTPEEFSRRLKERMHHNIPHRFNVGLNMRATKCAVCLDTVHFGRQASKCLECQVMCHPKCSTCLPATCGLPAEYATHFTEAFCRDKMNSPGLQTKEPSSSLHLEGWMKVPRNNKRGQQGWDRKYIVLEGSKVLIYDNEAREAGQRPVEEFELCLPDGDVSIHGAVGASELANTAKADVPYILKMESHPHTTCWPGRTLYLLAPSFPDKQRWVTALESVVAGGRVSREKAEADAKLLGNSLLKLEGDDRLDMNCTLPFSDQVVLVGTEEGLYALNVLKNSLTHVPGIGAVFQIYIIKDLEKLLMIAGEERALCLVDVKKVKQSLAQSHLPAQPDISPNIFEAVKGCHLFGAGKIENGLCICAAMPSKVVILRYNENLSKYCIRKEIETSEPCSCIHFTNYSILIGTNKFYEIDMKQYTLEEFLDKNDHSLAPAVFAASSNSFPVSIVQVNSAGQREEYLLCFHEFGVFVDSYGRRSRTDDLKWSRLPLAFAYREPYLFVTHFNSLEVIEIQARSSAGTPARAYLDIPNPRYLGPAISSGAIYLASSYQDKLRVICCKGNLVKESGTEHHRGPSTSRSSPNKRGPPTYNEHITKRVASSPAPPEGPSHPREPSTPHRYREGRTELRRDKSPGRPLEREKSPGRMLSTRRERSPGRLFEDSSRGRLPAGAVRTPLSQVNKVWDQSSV
pIC50: −log10 of the molar value.
assay-endpoint: pIC50

// fetch hCIT (Homo sapiens) pIC50 for "Cc1cn(CCN2CCN(c3ccccc3-c3cc(C#N)cc(C(=O)NCCCN4CCCC4)c3)CC2)c2ccccc12"
< 4.70

* * *

- test-system: hERK5 (Homo sapiens)
- Sequence (Q13164 whole entry): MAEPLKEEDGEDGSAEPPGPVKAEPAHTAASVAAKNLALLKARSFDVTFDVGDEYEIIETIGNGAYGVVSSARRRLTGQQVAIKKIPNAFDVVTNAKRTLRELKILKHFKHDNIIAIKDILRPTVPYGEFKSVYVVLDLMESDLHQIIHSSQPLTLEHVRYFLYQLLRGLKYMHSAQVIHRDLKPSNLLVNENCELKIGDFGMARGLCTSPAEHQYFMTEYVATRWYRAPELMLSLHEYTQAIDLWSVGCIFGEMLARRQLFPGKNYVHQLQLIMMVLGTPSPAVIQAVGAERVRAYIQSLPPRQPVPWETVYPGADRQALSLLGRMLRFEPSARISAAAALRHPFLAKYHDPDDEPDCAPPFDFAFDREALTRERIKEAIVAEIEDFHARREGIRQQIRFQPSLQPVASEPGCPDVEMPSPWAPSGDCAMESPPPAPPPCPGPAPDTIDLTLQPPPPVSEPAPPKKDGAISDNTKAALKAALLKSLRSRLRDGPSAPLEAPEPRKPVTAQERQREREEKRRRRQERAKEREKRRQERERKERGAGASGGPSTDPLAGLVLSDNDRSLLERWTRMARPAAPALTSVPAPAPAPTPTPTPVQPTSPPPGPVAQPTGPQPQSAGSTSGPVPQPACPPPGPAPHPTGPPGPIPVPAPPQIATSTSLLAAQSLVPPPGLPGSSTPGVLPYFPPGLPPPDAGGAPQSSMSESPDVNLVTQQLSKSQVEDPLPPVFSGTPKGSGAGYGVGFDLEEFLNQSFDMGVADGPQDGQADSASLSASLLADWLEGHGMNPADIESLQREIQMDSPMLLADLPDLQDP
pIC50: −log10 of the molar value.
assay-endpoint: pIC50

// fetch hERK5 (Homo sapiens) pIC50 for "Cc1cn(CCN2CCN(c3ccccc3-c3cc(C#N)cc(C(=O)NCCCN4CCCC4)c3)CC2)c2ccccc12"
< 4.70
